# method.description: Pharmacokinetics of intraperitoneal or intravenous injection in CD1 mice (plasma, LC/MS/MS)
# Type: in vivo
# condition.set: male, CD1, mouse, plasma, iv, 1 mg/kg, IV 1.0 mg/kg, 1 h, read-out: Conc. Mouse 3
quantity.measured: concentration at 1 h (ng/mL)

[[record]]
chemical_smiles = "COc1cc2c(Oc3ccc(NC(=O)C4(C(=O)Nc5ccc(F)cc5)CC4)cc3F)ccnc2cc1OCCCOCCCOCCC(=O)N[C@H](C(=O)N1C[C@H](O)C[C@H]1C(=O)NCc1ccc(-c2scnc2C)cc1)C(C)(C)C"
meas_value = 153


* * *

# method.description: Pharmacokinetics of intraperitoneal or intravenous injection in CD1 mice (plasma, LC/MS/MS)
# Format: in vivo
# condition.set: male, CD1, mouse, plasma, ip, 10 mg/kg, IP 10 mg/kg, 24 h, read-out: Conc. Mouse 3
quantity.measured: concentration at 24 h (ng/mL)

[[record]]
molecule = "COc1cc2c(Oc3ccc(NC(=O)C4(C(=O)Nc5ccc(F)cc5)CC4)cc3F)ccnc2cc1OCCCOCCCOCCC(=O)N[C@H](C(=O)N1C[C@H](O)C[C@H]1C(=O)NCc1ccc(-c2scnc2C)cc1)C(C)(C)C [Example 1]"
quantity_measured = "concentration at 24 h"
readout_units = "ng/mL"
meas_value = 15.1

